- assay.target: Human GLP-1 receptor (Homo sapiens, UniProt P43220)
- Construct: expressed in transfected cells
- Sequence (P43220 24-463): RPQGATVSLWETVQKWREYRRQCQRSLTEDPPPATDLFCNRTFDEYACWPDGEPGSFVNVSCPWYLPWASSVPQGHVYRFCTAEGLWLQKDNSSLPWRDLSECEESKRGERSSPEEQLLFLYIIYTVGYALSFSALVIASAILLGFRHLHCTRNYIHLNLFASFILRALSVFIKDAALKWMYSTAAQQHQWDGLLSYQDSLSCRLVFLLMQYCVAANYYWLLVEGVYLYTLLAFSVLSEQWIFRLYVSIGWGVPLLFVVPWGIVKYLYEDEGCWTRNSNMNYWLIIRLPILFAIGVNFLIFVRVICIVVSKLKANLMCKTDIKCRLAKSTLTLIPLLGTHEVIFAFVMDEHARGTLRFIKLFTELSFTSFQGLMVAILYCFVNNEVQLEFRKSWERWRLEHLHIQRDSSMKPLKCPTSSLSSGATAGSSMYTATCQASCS
- assay.text: Measurement of GLP-1 receptor agonist activity (cAMP assay)
- Assay type: cell-based
- test.parameters: cAMP increase in GLP-1 R/CHO-K1 cells; 2 nM human GLP-1 (7-36) = 100%, DMSO only = 0%
We begin with a simple list: items and their reported EC50.
measured.quantity: EC50

| smiles.repr | result |
| --- | --- |
| C[C@H]1c2cc(OCc3ccc(Cl)cc3F)c(Cl)cc2CCN1Cc1nc2ccc(C(=O)O)c(F)c2n1C[C@@H]1CCO1 | 0.466 nM |
| C[C@H]1c2nc(OCc3ccc(F)cc3F)c(C(F)(F)F)cc2CCN1Cc1nc2c(F)cc(C(=O)O)cc2n1C[C@@H]1CCO1 | 0.0526 nM |
| O=C(O)c1cc(F)c2nc(CN3CCc4cc(C(F)(F)F)c(OCc5ccc(F)cc5F)nc4C3)n(C[C@@H]3CCO3)c2c1 | 0.516 nM |
| COc1cc(C(=O)O)cc2c1nc(CN1CCc3cc(C(F)(F)F)c(OCc4c(F)cc(F)cc4F)nc3[C@@H]1C)n2C[C@@H]1CCO1 | 0.00862 nM |
| COc1cc(C(=O)O)cc2c1nc(CN1CCc3cc(Cl)c(OCc4ccc(Cl)cc4)cc3[C@@H]1C)n2C[C@@H]1CCO1 | 0.236 nM |
| C[C@H]1c2nc(OCc3ccc(F)cc3)c(C(F)(F)F)cc2CCN1Cc1nc2ccc(C(=O)O)nc2n1C[C@@H]1CCO1 | 0.266 nM |

* * *

- assay.target: Human GLP-1 receptor (Homo sapiens, UniProt P43220)
- Construct: expressed in transfected cells
- assay.text: Measurement of GLP-1 receptor agonist activity (cAMP assay)
- Type: cell-based
- test.parameters: CHO-K1, hGLP-1R/CHO-K1 cells, cAMP; 100% = human GLP-1 (7-36) at 2 nM, 0% = DMSO only; read-out: Emax(%)

| compound | readout.units | Emax |
| --- | --- | --- |
| Cc1ccc(COc2cc3c(cc2C(F)(F)F)CCN(Cc2nc4ccc(C(=O)O)cc4n2C[C@@H]2CCO2)[C@H]3C)cc1 [Compound I-162] | % | 106 |
| O=C(O)c1ccc2nc(CN3CCc4cc(C(F)(F)F)c(OCc5ccc6c(c5)CCC6)cc4C3)n(C[C@@H]3CCO3)c2c1 [Compound I-074] | % | 100 |
| Cc1cc2c(cc1OCc1ccc(C(F)(F)F)cn1)CN(Cc1nc3ccc(C(=O)O)cc3n1C[C@@H]1CCO1)CC2 [Compound I-015] | % | 81.3 |
| C[C@H]1c2cc(OCc3ccc(F)cc3F)c(C(F)(F)F)cc2CCN1Cc1nc2c(F)cc(C(=O)O)cc2n1C[C@@H]1CCO1 [Compound I-210] | % | 113 |
| C[C@H]1c2cc(OCc3ccc(Cl)cn3)c(C(F)(F)F)cc2CCN1Cc1nc2ccc(C(=O)O)cc2n1C[C@@H]1CCO1 [Compound I-172] | % | 113 |
| O=C(O)c1ccc2nc(Cc3ccc4nc(C(F)(F)F)c(OCc5ccc(Cl)cc5F)nc4c3)n(C[C@@H]3CCO3)c2c1 [Compound I-076] | % | 108 |
| Cc1ccc(COc2cc3c(cc2C(F)(F)F)CCN(Cc2nc4c(F)cc(C(=O)O)cc4n2C[C@@H]2CCO2)[C@H]3C)cc1 [Compound I-206] | % | 110 |
| C[C@H]1c2cc(OCc3ccc(Cl)cc3Cl)c(C(F)(F)F)cc2CCN1Cc1nc2ccc(C(=O)O)cc2n1C[C@@H]1CCO1 [Compound I-167] | % | 102 |
| Cc1cc2c(cc1OCc1ccc(Cl)cc1)CN(Cc1nc3ccc(C(=O)O)cc3n1C[C@@H]1CCO1)CC2 [Compound I-016] | % | 79 |
| O=C(O)c1ccc2nc(CN3CCc4cc(C(F)(F)F)c(OCc5ccc(Cl)cc5F)nc4C3)n(C[C@@H]3CCO3)c2c1F [Compound I-222] | % | 108 |
| C[C@H]1c2cc(OCc3ccc(F)cc3F)c(C(F)(F)F)cc2CCN1Cc1nc2ccc(C(=O)O)cc2n1C[C@@H]1CCO1 [Compound I-166] | % | 111 |
| C[C@H]1c2cc(OCc3ccc(F)cc3F)c(C(F)(F)F)cc2CCN1Cc1nc2ccc(C(=O)O)c(F)c2n1C[C@@H]1CCO1 [Compound I-198] | % | 128 |
| O=C(O)c1ccc2nc(CN3CCc4cc(C(F)(F)F)c(OCc5c(F)cc(Cl)cc5F)cc4C3)n(C[C@@H]3CCO3)c2c1 [Compound I-101] | % | 113 |
| Cc1cc2c(cc1OCc1ccc(Cl)cc1F)C(=O)N(Cc1nc3ccc(C(=O)O)cc3n1C[C@@H]1CCO1)CC2 [Compound I-004] | % | 75.3 |
| C[C@H]1c2cc(OCc3ccc(Cl)cc3F)c(Cl)cc2CCN1Cc1nc2ccc(C(=O)O)cc2n1C[C@@H]1CCO1 [Compound I-174] | % | 109 |
| Cc1cc(COc2cc3c(cc2C(F)(F)F)CCN(Cc2nc4ccc(C(=O)O)cc4n2C[C@@H]2CCO2)C3)no1 [Compound I-070] | % | 119 |
| O=C(O)c1ccc2nc(CN3CCc4cc(C(F)(F)F)c(OCc5ccc(Cl)cc5Cl)cc4C3)n(C[C@@H]3CCO3)c2c1 [Compound I-099] | % | 114 |
| O=C(O)c1ccc2nc(CN3CCc4cc(C(F)(F)F)c(OCc5ccccc5)cc4C3)n(C[C@@H]3CCO3)c2c1 [Compound I-156] | % | 89 |
| C[C@H]1c2cc(OCc3ccc(C4CC4)cc3)c(C(F)(F)F)cc2CCN1Cc1nc2ccc(C(=O)O)nc2n1C[C@@H]1CCO1 [Compound I-180] | % | 97.3 |

* * *

- assay.target: Human GLP-1 receptor (Homo sapiens)
- Construct: expressed in transfected cells
- assay.text: Measurement of GLP-1 receptor agonist activity (cAMP assay)
- Assay type: cell-based
- test.parameters: hGLP-1R/CHO-K1 cells, cAMP increase, 37° C. 1 hour
pEC50: −log10 of the molar value.
measured.quantity: pEC50

| smiles.repr | measured.quantity | number |
| --- | --- | --- |
| Cc1cc2c(cc1OCc1ccc(Cl)cc1F)C(=O)N(Cc1nc3ccc(C(=O)O)cc3n1C[C@@H]1CCO1)CC2 | pEC50 | 7.36 |
| O=C(O)c1cc(F)c2nc(CN3CCc4cc(C(F)(F)F)c(OCc5ccc(Cl)cc5F)cc4C3)n(C[C@@H]3CCO3)c2c1F | pEC50 | 8.93 |
| C[C@H]1c2cc(OCc3ccc(Cl)cn3)c(C(F)(F)F)cc2CCN1Cc1nc2c(F)cc(C(=O)O)cc2n1C[C@@H]1CCO1 | pEC50 | 9.51 |
| C[C@H]1c2nc(OCc3ccc(F)cc3Cl)c(C(F)(F)F)cc2CCN1Cc1nc2ccc(C(=O)O)cc2n1C[C@@H]1CCO1 | pEC50 | 9.60 |
| O=C(O)c1ccc2nc(CN3CCc4cc(C(F)(F)F)c(OCc5ccn(CC(F)(F)F)n5)cc4C3)n(C[C@@H]3CCO3)c2c1 | pEC50 | 6.91 |
| O=C(O)c1ccc2nc(CN3CCc4cc(C(F)(F)F)c(OCc5ccc(Cl)cc5F)cc4C3)n(C[C@@H]3CCO3)c2c1Cl | pEC50 | 7.54 |
| C[C@H]1c2cc(OCc3c(F)cc(Cl)cc3F)c(C(F)(F)F)cc2CCN1Cc1nc2c(F)cc(C(=O)O)cc2n1C[C@@H]1CCO1 | pEC50 | 9.48 |
| Cc1csc(COc2cc3c(cc2C(F)(F)F)CCN(Cc2nc4c(F)cc(C(=O)O)cc4n2C[C@@H]2CCO2)[C@H]3C)n1 | pEC50 | 9.29 |
| Cc1ccc(COc2cc3c(cc2C(F)(F)F)CCN(Cc2nc4c(F)cc(C(=O)O)cc4n2C[C@@H]2CCO2)[C@H]3C)cc1 | pEC50 | 9.29 |
| C[C@H]1c2cc(OCc3ccc(F)cc3F)c(C(F)(F)F)cc2CCN1Cc1nc2ccc(C(=O)O)nc2n1C[C@@H]1CCO1 | pEC50 | 8.60 |
| C[C@H]1c2cc(OCc3ccccc3Cl)c(C(F)(F)F)cc2CCN1Cc1nc2ccc(C(=O)O)c(F)c2n1C[C@@H]1CCO1 | pEC50 | 8.88 |
| O=C(O)c1ccc2nc(CN3CCc4cc(C(F)(F)F)c(OCc5c(F)cc(OC(F)F)cc5F)cc4C3)n(C[C@@H]3CCO3)c2c1 | pEC50 | 8.63 |
| Cn1nncc1Cn1c(CN2CCc3cc(C(F)(F)F)c(OCc4ccc(Cl)cc4F)cc3C2)nc2ccc(C(=O)O)cc21 | pEC50 | 6.62 |
| C[C@H]1c2cc(OCc3ccc(C4CC4)cc3)c(C(F)(F)F)cc2CCN1Cc1nc2ccc(C(=O)O)c(F)c2n1C[C@@H]1CCO1 | pEC50 | 8.48 |
| O=C(O)c1ccc2nc(CN3CCc4cc(C(F)(F)F)c(OCc5ccccc5Cl)cc4C3)n(C[C@@H]3CCO3)c2c1 | pEC50 | 8.18 |
| C[C@H]1c2cc(OCc3ccc(F)cc3)c(C(F)(F)F)cc2CCN1Cc1nc2ccc(C(=O)O)cc2n1C[C@@H]1CCO1 | pEC50 | 8.42 |
